B1: MLH1 (parent)
chain: YAHQMVRTDSREQKLDAFLQPLSK

Variants of: B1
Assay: protein stability index of a GFP-peptide fusion (GPS, HEK-293T) (PSI 1-6); higher = more stable;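 further: lentivirally expressed fusions sorted by FACS into six bins by GFP to DsRed ratio, PSI derived from sequencing read proportions per bin multiplied by bin number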
Settings: c terminus: a fixed tail appended

| alteration | protein stability index |
| --- | --- |
| Q13N | 2.48 |
| E12S | 2.32 |
| A2Q | 2.74 |
| D16N | 1.91 |
| H3N | 3.13 |
| D16C | 1.99 |
| V6S | 2.97 |
| K24C | 2.29 |
| M5K | 2.98 |
| M5R | 2.59 |
| S23D | 3.41 |
| F18W | 1.85 |
| K24G | 2.48 |
| L22T | 3.2 |
| M5Y | 2.43 |
| H3D | 3.05 |
| Y1K | 3.88 |
| Q20L | 2.53 |
| L19W | 2.42 |
| V6D | 3.03 |
| D9T | 1.99 |
| A17V | 3.02 |
| Q4M | 2.51 |
| S10L | 1.72 |
| F18Y | 2.27 |
| L22S | 3.14 |
| Y1I | 3.38 |
| A2C | 2.09 |
| L22M | 2.43 |
| E12V | 2.42 |
| L19Q | 3.02 |
| D16Q | 2.46 |
| A2T | 2.55 |
| H3L | 2.19 |
| H3F | 2.19 |
| Y1N | 2.95 |
| M5S | 3.02 |
| S23A | 1.99 |
| L22H | 2.45 |
| F18H | 3.29 |
| D9S | 2.54 |
| A2M | 3.12 |
